meta.source: ChEMBL document CHEMBL1154858

# Test system: Escherichia coli
# assay_text: Antibacterial activity against Escherichia coli ATCC 25922 after 24 hrs by cup plate method
# Assay type: functional
# condition_parameters: ATCC 25922, 24 h
parameter: MIC (µg/mL)
A number alone suffices; assume µg/mL.

{"compound": "CCOP(=O)(OCC)C(OC(C)=O)c1cc2ccc(OC)cc2n2nnnc12 (centres undefined)", "target_entity": "Escherichia coli", "endpoint_unit": "µg/mL", "endpoint_value": 15}
{"compound": "CN[C@@H]1[C@H](O[C@H]2[C@H](O[C@H]3[C@H](O)[C@@H](O)[C@H](N=C(N)N)[C@@H](O)[C@@H]3N=C(N)N)O[C@@H](C)[C@]2(O)C=O)O[C@@H](CO)[C@H](O)[C@H]1O [STREPTOMYCIN]", "target_entity": "Escherichia coli", "endpoint_unit": "µg/mL", "endpoint_value": 5}
{"compound": "CCOP(=O)(OCC)C(OC(C)=O)c1cc2cc(C)ccc2n2nnnc12 (centres undefined)", "target_entity": "Escherichia coli", "endpoint_unit": "µg/mL", "endpoint_value": 15}
{"compound": "CCOP(=O)(OCC)C(OC(C)=O)c1cc2ccc(C)cc2n2nnnc12 (centres undefined)", "target_entity": "Escherichia coli", "endpoint_unit": "µg/mL", "endpoint_value": 15}
{"compound": "CCOP(=O)(OCC)C(O)c1cc2cc(C)ccc2n2nnnc12 (centres undefined)", "target_entity": "Escherichia coli", "endpoint_unit": "µg/mL", "endpoint_value": 10}
{"compound": "CCOP(=O)(OCC)C(O)c1cc2ccc(C)cc2n2nnnc12 (centres undefined)", "target_entity": "Escherichia coli", "endpoint_unit": "µg/mL", "endpoint_value": 15}
{"compound": "CCOP(=O)(OCC)C(OC(C)=O)c1cc2cccc(C)c2n2nnnc12 (centres undefined)", "target_entity": "Escherichia coli", "endpoint_unit": "µg/mL", "endpoint_value": 10}
{"compound": "CCOc1ccc2c(c1)cc(C(OC(C)=O)P(=O)(OCC)OCC)c1nnnn12 (centres undefined)", "target_entity": "Escherichia coli", "endpoint_unit": "µg/mL", "endpoint_value": 10}

Ask | I am curious: what MIC value has been reported for CCOP(=O)(OCC)C(OC(C)=O)c1cc2cccc(CC)c2n2nnnc12 (centres undefined) ?
Reply | 10

Ask | Given the entry CCOP(=O)(OCC)C(O)c1cc2cccc(OC)c2n2nnnc12 (centres undefined) , report its measured MIC.
Reply | 15

Ask | Which MIC value is on record for CCOP(=O)(OCC)C(OC(C)=O)c1cc2cccc(OC)c2n2nnnc12 (centres undefined) ?
Reply | 25

Ask | # input compound: CCOP(=O)(OCC)C(OC(C)=O)c1cc2ccccc2n2nnnc12 (centres undefined) ; wanted: its MIC
Reply | 10

Ask | Name the reported MIC value associated with the compound CCOP(=O)(OCC)C(O)c1cc2ccc(OC)cc2n2nnnc12 (centres undefined)
Reply | 15

Ask | Which MIC value is on record for CCOP(=O)(OCC)C(O)c1cc2cccc(CC)c2n2nnnc12 (centres undefined) ?
Reply | 20

Ask | Query (compound): CCOP(=O)(OCC)C(O)c1cc2cc(OC)ccc2n2nnnc12 (centres undefined) ; field requested: MIC
Reply | 15

Ask | May I ask what MIC has been recorded for CCOP(=O)(OCC)C(O)c1cc2cccc(C)c2n2nnnc12 (centres undefined) ?
Reply | 25

Ask | So what's the measured MIC for this one? CCOP(=O)(OCC)C(O)c1cc2ccccc2n2nnnc12 (centres undefined)
Reply | 20

Ask | MIC lookup needed for CCOc1ccc2c(c1)cc(C(O)P(=O)(OCC)OCC)c1nnnn12 (centres undefined) , thanks.
Reply | 15

Ask | // returns reported MIC for input CCOP(=O)(OCC)C(OC(C)=O)c1cc2cc(OC)ccc2n2nnnc12 (centres undefined)
Reply | 10

---

# Test system: Bacillus subtilis
# assay_text: Antibacterial activity against Bacillus subtilis NCIM 2250 after 24 hrs by cup plate method
# Format: functional
# condition_parameters: NCIM 2250, 24 h
Let's look at some compounds and their measured MIC.
Number first, unit second: that is the form wanted.

Worked examples, 9 compounds total:
{"compound": "CCOc1ccc2c(c1)cc(C(OC(C)=O)P(=O)(OCC)OCC)c1nnnn12 (stereo not given)", "MIC": "10 µg/mL"}
{"compound": "CCOP(=O)(OCC)C(OC(C)=O)c1cc2cc(OC)ccc2n2nnnc12 (stereo not given)", "MIC": "10 µg/mL"}
{"compound": "CCOP(=O)(OCC)C(OC(C)=O)c1cc2cccc(OC)c2n2nnnc12 (stereo not given)", "MIC": "15 µg/mL"}
{"compound": "CCOP(=O)(OCC)C(OC(C)=O)c1cc2cccc(C)c2n2nnnc12 (stereo not given)", "MIC": "20 µg/mL"}
{"compound": "CCOP(=O)(OCC)C(OC(C)=O)c1cc2ccccc2n2nnnc12 (stereo not given)", "MIC": "15 µg/mL"}
{"compound": "CCOP(=O)(OCC)C(O)c1cc2cc(OC)ccc2n2nnnc12 (stereo not given)", "MIC": "10 µg/mL"}
{"compound": "CCOP(=O)(OCC)C(O)c1cc2cccc(CC)c2n2nnnc12 (stereo not given)", "MIC": "10 µg/mL"}
{"compound": "CCOP(=O)(OCC)C(O)c1cc2ccccc2n2nnnc12 (stereo not given)", "MIC": "10 µg/mL"}
{"compound": "CCOP(=O)(OCC)C(OC(C)=O)c1cc2cc(C)ccc2n2nnnc12 (stereo not given)", "MIC": "10 µg/mL"}

Now look at this entry.
Ask | Value lookup for MIC; key = CCOP(=O)(OCC)C(O)c1cc2ccc(C)cc2n2nnnc12 (stereo not given)
Reply | 10 µg/mL
